# Test system: Fibroblast
# ASSAY DETAILS: Incucyte cell viability with human fibroblast; further: unitless GR value; below 1 slowed growth and below 0 cell loss
# Type: toxicity, cell-based
# CONDITION: 24 h, 10 µM, compound concentration 10 uM, replicate number 1
Let's look at some compounds and their measured Growth Rate.
METRIC: Growth Rate

INSERT INTO results (compound, metric, reported_result) VALUES
  ('O=C(O)Cc1cc(I)c(Oc2ccc(O)c(I)c2)c(I)c1', 'Growth Rate', 0.92),
  ('CCn1cnc2c(-c3ccc(F)c(-c4ccc(S(=O)(=O)CC)cc4OC)c3)cnnc21', 'Growth Rate', -0.69),
  ('Cc1cc(C2CCCNC2)ccc1Nc1ncc(Br)c(NCc2cccc3c2C(C)(C)C(=O)N3)n1 (stereo not drawn)', 'Growth Rate', 0.34),
  ('CCN(CC)CCO[C@H]1CC[C@@]2(C)C(=CC[C@@H]3[C@@H]2CC[C@]2(C)C(=O)CC[C@@H]32)C1.Cl', 'Growth Rate', -0.25),
  ('CC(=O)c1c(C)c2cnc(Nc3ccc(N4CCNCC4)cn3)nc2n(C2CCCC2)c1=O', 'Growth Rate', 0.79),
  ('CC(=O)N(CCN(C)C)c1ccc(N/C(=C2\C(=O)Nc3cc(Cl)ccc32)c2ccccc2)cn1', 'Growth Rate', -0.58),
  ('COc1cc(N2CCC(N3CCN(C)CC3)CC2)ccc1Nc1ncc(Cl)c(Nc2ccccc2S(=O)(=O)C(C)C)n1', 'Growth Rate', -0.12),
  ('CC1(C)CCC[C@]2(C)[C@@H](C=O)C(C=O)=CC[C@@H]12', 'Growth Rate', 0.41);

* * *

# Tested on: U2OS
# ASSAY DETAILS: Incucyte cell viability with U2OS; further: unitless GR value; below 1 slowed growth and below 0 cell loss
# Type: toxicity, cell-based
# CONDITION: human, 12 h, 10 µM, compound concentration 10 uM, replicate number 1
Please enter 1 where Growth Rate is greater than or equal to 0.9, and 0 where it is lower.

INSERT INTO results (molecule, study_system, class_name) VALUES
  ('Clc1ccccc1C(c1ccccc1)(c1ccccc1)n1cccn1', 'U2OS', 0),
  ('Cc1cccc([C@H]2CC[C@@H](N3CCN(c4cccnc4)CC3)CC2)c1.O=C(O)C(F)(F)F.O=C(O)C(F)(F)F', 'U2OS', 1),
  ('Cl.O=C(NCCN1CCC2(CC1)C(=O)NCN2c1cccc(F)c1)c1ccc2ccccc2c1', 'U2OS', 0),
  ('Cc1ccc(NC(=O)c2ccc3cnccc3c2)cc1C(=O)Nc1cnc(Nc2cccc(NC3CCN(C(=O)/C=C/CN(C)C)CC3)c2)nc1', 'U2OS', 0),
  ('COCCN1CCN(CCn2ccc(Nc3ncc4c(n3)-c3c(nn(C)c3-c3ccccc3)C[C@H]4C)n2)CC1', 'U2OS', 0),
  ('FC(F)(F)c1ccc(Nc2ncnc3cc(-c4ncccc4C(F)(F)F)ccc23)cc1', 'U2OS', 1),
  ('COc1c(NC(=O)c2cc3cccc(Oc4ccnc(C(=O)N5CCN(C)CC5)c4)c3n2C)cc(C(C)(C)C)cc1NS(C)(=O)=O', 'U2OS', 0),
  ('CCCNc1ccc2ncc(-c3ccncc3)n2n1', 'U2OS', 0),
  ('COCCc1ccc(-c2c(C)nc3c(N4CCOCC4)ccnn23)cn1', 'U2OS', 1),
  ('CCc1ccc(-c2ncn(CC3(F)CCN(C)CC3)c2-c2ccnc3[nH]ccc23)nc1', 'U2OS', 0),
  ('O=C(Nc1cccc(Nc2nccc(Nc3cccc(C(F)(F)F)c3)n2)c1)C1CC1', 'U2OS', 0),
  ('CC1(C)C(=O)N([C@H]2CCc3c(O)cccc32)c2nc(Nc3cccc(CN4CCCC4)c3)ncc21', 'U2OS', 0),
  ('Cc1ccc(C)c(OCCCC(C)(C)C(=O)O[C@@H]2O[C@H](C(=O)O)[C@@H](O)[C@H](O)[C@H]2O)c1', 'U2OS', 0),
  ('NC(=O)c1ccc(-c2nc(-c3ccc4c(c3)OCCO4)c(-c3ccccn3)[nH]2)cc1', 'U2OS', 0),
  ('Nc1ncc2c(n1)-c1c([nH]c3ccc(C4CC4)cc13)CCCC2', 'U2OS', 0),
  ('CC(C)C[C@H](NC(=O)[C@@H](O)[C@H](N)Cc1ccccc1)C(=O)O', 'U2OS', 0),
  ('CNc1nc(-c2ccc3c(N)n[nH]c3c2)cc(N2C[C@@H](C(=O)NC3CCCCC3)CC[C@H]2C)n1', 'U2OS', 0),
  ('CCCCCNC(=O)N1CCC(CN(Cc2ccc(Cl)cc2)Cc2ccc([N+](=O)[O-])s2)C1 (stereo not drawn)', 'U2OS', 0),
  ('Cc1ccccc1Oc1cc(-n2c(=O)cc(C(F)(F)F)[nH]c2=O)c2ccccc2c1Cl', 'U2OS', 0),
  ('NS(=O)(=O)c1cncc(-c2nc(NCc3ccccn3)c3c(-c4ccccc4)cccc3n2)c1', 'U2OS', 1),
  ('CN(C(=O)c1cnn2cccnc12)c1cc2c(cc1N1CCOCC1)C(=O)N(C[C@@H](F)C(C)(C)O)C2', 'U2OS', 1),
  ('O=C1C[C@@H]2OCC=C3CN4CC[C@]56c7ccccc7N1[C@H]5[C@H]2[C@H]3C[C@H]46', 'U2OS', 1),
  ('O=C(NCC1(N2CCN(c3ccccc3)CC2)CCOCC1)c1cccnc1Sc1ccccc1', 'U2OS', 1),
  ('CC(C1CC2CCC1C2)n1c(S)nnc1-c1ccco1 (stereo not drawn)', 'U2OS', 1),
  ('Cc1sc(C(=O)c2cncnc2N[C@@H]2C[C@H](COS(N)(=O)=O)[C@@H](O)C2)cc1[C@@H]1NCCc2ccc(Cl)cc21', 'U2OS', 1),
  ('CC[C@H](NC(=O)[C@H](C)NC)C(=O)N1C[C@@H](O)C[C@H]1Cc1c(-c2[nH]c3cc(F)ccc3c2C[C@@H]2C[C@H](O)CN2C(=O)[C@H](CC)NC(=O)[C@H](C)NC)[nH]c2cc(F)ccc12', 'U2OS', 0),
  ('O=C1CSC(=O)N1C(CCc1ccncc1)COc1ccc(-c2cccc([N+](=O)[O-])c2)cc1 (stereo not drawn)', 'U2OS', 0),
  ('COc1cccc(Cn2cc(C(=O)Nc3ccc(C)c(S(=O)(=O)N4CCOCC4)c3)c(-c3ccc(C)cc3)n2)c1', 'U2OS', 1),
  ('Cl.Cl.N#Cc1ccc(O[C@@H]2c3ccccc3C[C@H]2N2CCC[C@@H](N)C2)c(Cl)c1', 'U2OS', 0),
  ('CN(C)C(=O)Cn1cc(-c2nc([C@@](C)(c3ccc(-c4cnc(N)nc4)cc3)C3CC3)no2)cn1', 'U2OS', 0);

* * *

# System: Fibroblast
# ASSAY DETAILS: Incucyte cell viability with human fibroblast; further: unitless GR value; below 1 slowed growth and below 0 cell loss
# Type: toxicity, cell-based
# CONDITION: 6 h, 10 µM, compound concentration 10 uM, replicate number 1
Friendly reminder: Growth Rate below -0.3 is MET, at or above is NOT MET.

INSERT INTO measurements (compound, class_name) VALUES
  ('Cc1cc(OCCC(C)(C)O)cc(C)c1-c1ccc(F)c2c1CC[C@H]2Oc1ccc2c(c1)OC[C@H]2CC(=O)O', 'NOT MET'),
  ('COc1cccc(Cn2cc(C(=O)Nc3ccc(C)c(S(=O)(=O)N4CCOCC4)c3)c(-c3ccc(C)cc3)n2)c1', 'NOT MET'),
  ('CC(C)Oc1ccc(Cc2ccc(NC3=NCCN3)cc2)cc1', 'MET'),
  ('COc1ccc(Br)cc1S(=O)(=O)NC(=O)/C=C/c1cc(Cl)ccc1Cc1ccc2ccccc2c1', 'NOT MET'),
  ('C[C@@]1(Cc2ccc(C#N)cc2)C(=O)N(c2cc(Cl)cc(Cl)c2)c2ncc(C(=O)NC3(c4nc(C5CCC5)no4)CC3)n21', 'NOT MET'),
  ('CCS(=O)(=O)c1ccc(OC)c(Nc2ncc(-c3cccc(F)c3)o2)c1 [GW621970X]', 'NOT MET'),
  ('Cn1cc(-n2cnc3c(NCc4nc5cc(Cl)c(Cl)cc5[nH]4)nc(N4CCOCC4)nc32)cn1', 'NOT MET'),
  ('CC(=O)N(CCN(C)C)c1ccc(N/C(=C2\C(=O)Nc3cc(Cl)ccc32)c2ccccc2)cn1', 'MET'),
  ('COc1ccc(CC(=O)NC(N/C(=N/C#N)Nc2cccc3ncccc23)C(C)(C)C)cc1OC (centres undefined)', 'MET');

* * *

# Tested on: Fibroblast
# ASSAY DETAILS: Incucyte cell viability with human fibroblast; further: unitless GR value; below 1 slowed growth and below 0 cell loss
# Assay type: toxicity, cell-based
# CONDITION: 18 h, 10 µM, compound concentration 10 uM, replicate number 1
Let's look at some compounds and their measured Growth Rate.
METRIC: Growth Rate

INSERT INTO assay_data (compound, study_system, metric, reported_result) VALUES
  ('Cc1cc(Cn2c(N3CC4(CNC4)C3)nc3c(N4CCN(C)CC4)cc(Cl)cc32)cc(C)c1F', 'Fibroblast', 'Growth Rate', -0.95),
  ('CCN(C(=O)c1cc(F)ccc1Oc1cncnc1N1CC2(CCN(C[C@H]3CC[C@H](NS(=O)(=O)CC)CC3)CC2)C1)C(C)C', 'Fibroblast', 'Growth Rate', 0.79),
  ('O=C(CNCc1cc2ccccc2[nH]1)N[C@H]1CC[C@@H](c2nc3ccccc3[nH]2)CC1', 'Fibroblast', 'Growth Rate', 0.78),
  ('c1cnc2cc3c(cc2n1)[C@@H]1CNC[C@H]3C1', 'Fibroblast', 'Growth Rate', -0.31),
  ('COP(=O)(CCC(N)C(=O)O)Oc1cccc(CC(=O)O)c1 (centres undefined)', 'Fibroblast', 'Growth Rate', 0.86),
  ('CC(C)(C#Cc1ccc(NC(=O)COc2ccccc2C(=O)c2ccccc2)c(Cl)c1)C(=O)O', 'Fibroblast', 'Growth Rate', 0.92),
  ('CC(C)(C)c1cc(NC(=O)c2csc(Nc3ccccn3)n2)no1', 'Fibroblast', 'Growth Rate', 0.21),
  ('COCCc1ccc(-c2c(C)nc3c(N4CCOCC4)ccnn23)cn1', 'Fibroblast', 'Growth Rate', 0.88),
  ('Cc1[nH]c2c(N3CCCCC3)c(-c3ccccc3)nn2c(=O)c1-c1ccc(O)cc1', 'Fibroblast', 'Growth Rate', 0.73);
